Test system: ECHCG, Barnyardgrass, Echinochloa crusgalli, (L.)Beau
Assay: Preemergence herbicidal evaluation (Example 148)
Type: in vivo
Details: rate 0.25 kg/ha, rating scale 0-9, two to four weeks after treatment
QUANTITY MEASURED: Preemergence herbicidal rating ECHCG
Write no unit; give the number alone.

Task: Item CC(C)CCNS(=O)(=O)NC(=O)c1cc(-n2c(=O)cc(C(F)(F)F)n(C)c2=O)c(F)cc1Cl has what recorded Preemergence herbicidal rating ECHCG?
Output: 6.0

Task: Item COc1cccc(CN(C)S(=O)(=O)NC(=O)c2cc(-n3c(=O)cc(C(F)(F)F)n(C)c3=O)c(F)cc2Cl)c1 has what recorded Preemergence herbicidal rating ECHCG?
Output: 7.0

Task: Item CCC(C)NS(=O)(=O)NC(=O)c1cc(-n2c(=O)cc(C(F)(F)F)n(C)c2=O)c(F)cc1Cl (stereo not drawn) has what recorded Preemergence herbicidal rating ECHCG?
Output: 7.0

* * *

Kindly state Preemergence herbicidal rating ZEAMX for each of the entries shown.
System: ZEAMX, Field corn, Zea mays L.
Assay: Preemergence herbicidal evaluation (Example 148)
Type: in vivo
Conditions: rate 0.25 kg/ha, rating scale 0-9, two to four weeks after treatment
Write no unit; give the number alone.

Task: Query the reported Preemergence herbicidal rating ZEAMX for ZEAMX, Field corn, Zea mays L.; item: Cn1c(C(F)(F)F)cc(=O)n(-c2cc(C(=O)NS(N)(=O)=O)c(Cl)cc2F)c1=O
Output: 1.0

Task: Query the reported Preemergence herbicidal rating ZEAMX for ZEAMX, Field corn, Zea mays L.; item: CCN(C)S(=O)(=O)NC(=O)c1cc(-n2c(=O)cc(C(F)(F)F)n(C)c2=O)c(F)cc1Cl
Output: 2.0

Task: Query the reported Preemergence herbicidal rating ZEAMX for ZEAMX, Field corn, Zea mays L.; item: CNS(=O)(=O)NC(=O)c1cc(-n2c(=O)cc(C(F)(F)F)n(C)c2=O)c(F)cc1Cl
Output: 2.0

Task: Query the reported Preemergence herbicidal rating ZEAMX for ZEAMX, Field corn, Zea mays L.; item: CN(Cc1ccccc1)S(=O)(=O)NC(=O)c1cc(-n2c(=O)cc(C(F)(F)F)n(C)c2=O)c(F)cc1Cl
Output: 2.0

Task: Query the reported Preemergence herbicidal rating ZEAMX for ZEAMX, Field corn, Zea mays L.; item: C=CCN(C)S(=O)(=O)NC(=O)c1cc(-n2c(=O)cc(C(F)(F)F)n(C)c2=O)c(F)cc1Cl
Output: 2.0

Task: Query the reported Preemergence herbicidal rating ZEAMX for ZEAMX, Field corn, Zea mays L.; item: CCC(C)N(C)S(=O)(=O)NC(=O)c1cc(-n2c(=O)cc(C(F)(F)F)n(C)c2=O)c(F)cc1Cl (centres unmarked)
Output: 3.0

Task: Query the reported Preemergence herbicidal rating ZEAMX for ZEAMX, Field corn, Zea mays L.; item: CCCN(CC)S(=O)(=O)NC(=O)c1cc(-n2c(=O)cc(C(F)(F)F)n(C)c2=O)c(F)cc1Cl
Output: 1.0

Task: Query the reported Preemergence herbicidal rating ZEAMX for ZEAMX, Field corn, Zea mays L.; item: COc1ccc(CNS(=O)(=O)NC(=O)c2cc(-n3c(=O)cc(C(F)(F)F)n(C)c3=O)c(F)cc2Cl)cc1
Output: 2.0

* * *

Kindly state Preemergence herbicidal rating SETVI for each of the entries shown.
Test system: SETVI, Green foxtail, Setaria viridis, (L.)Beau
Assay: Preemergence herbicidal evaluation (Example 148)
Type: in vivo
Conditions: rate 0.125 kg/ha, rating scale 0-9, two to four weeks after treatment

Task: Query the reported Preemergence herbicidal rating SETVI for SETVI, Green foxtail, Setaria viridis, (L.)Beau; item: Cn1c(C(F)(F)F)cc(=O)n(-c2cc(C(=O)NS(=O)(=O)NC(C)(C)C)c(Cl)cc2F)c1=O
Output: 3.0

Task: Query the reported Preemergence herbicidal rating SETVI for SETVI, Green foxtail, Setaria viridis, (L.)Beau; item: COc1cccc(CN(C)S(=O)(=O)NC(=O)c2cc(-n3c(=O)cc(C(F)(F)F)n(C)c3=O)c(F)cc2Cl)c1
Output: 3.0

Task: Query the reported Preemergence herbicidal rating SETVI for SETVI, Green foxtail, Setaria viridis, (L.)Beau; item: CCOC(=O)CN(C)S(N)(=O)=O
Output: 5.7

Task: Query the reported Preemergence herbicidal rating SETVI for SETVI, Green foxtail, Setaria viridis, (L.)Beau; item: CCNS(=O)(=O)NC(=O)c1cc(-n2c(=O)cc(C(F)(F)F)n(C)c2=O)c(F)cc1Cl
Output: 0.0

Task: Query the reported Preemergence herbicidal rating SETVI for SETVI, Green foxtail, Setaria viridis, (L.)Beau; item: CCC(C)N(C)S(=O)(=O)NC(=O)c1cc(-n2c(=O)cc(C(F)(F)F)n(C)c2=O)c(F)cc1Cl (stereo not drawn)
Output: 0.0

Task: Query the reported Preemergence herbicidal rating SETVI for SETVI, Green foxtail, Setaria viridis, (L.)Beau; item: COc1ccc(CNS(=O)(=O)NC(=O)c2cc(-n3c(=O)cc(C(F)(F)F)n(C)c3=O)c(F)cc2Cl)cc1
Output: 3.0

Task: Query the reported Preemergence herbicidal rating SETVI for SETVI, Green foxtail, Setaria viridis, (L.)Beau; item: CCC(C)NS(=O)(=O)NC(=O)c1cc(-n2c(=O)cc(C(F)(F)F)n(C)c2=O)c(F)cc1Cl (stereo not drawn)
Output: 8.0

Task: Query the reported Preemergence herbicidal rating SETVI for SETVI, Green foxtail, Setaria viridis, (L.)Beau; item: CC(C)CCNS(=O)(=O)NC(=O)c1cc(-n2c(=O)cc(C(F)(F)F)n(C)c2=O)c(F)cc1Cl
Output: 4.0

Task: Query the reported Preemergence herbicidal rating SETVI for SETVI, Green foxtail, Setaria viridis, (L.)Beau; item: Cn1c(C(F)(F)F)cc(=O)n(-c2cc(C(=O)NS(N)(=O)=O)c(Cl)cc2F)c1=O
Output: 2.0

Task: Query the reported Preemergence herbicidal rating SETVI for SETVI, Green foxtail, Setaria viridis, (L.)Beau; item: CCCN(CC)S(=O)(=O)NC(=O)c1cc(-n2c(=O)cc(C(F)(F)F)n(C)c2=O)c(F)cc1Cl
Output: 3.0

Task: Query the reported Preemergence herbicidal rating SETVI for SETVI, Green foxtail, Setaria viridis, (L.)Beau; item: CCCNS(=O)(=O)NC(=O)c1cc(-n2c(=O)cc(C(F)(F)F)n(C)c2=O)c(F)cc1Cl
Output: 4.0

Task: Query the reported Preemergence herbicidal rating SETVI for SETVI, Green foxtail, Setaria viridis, (L.)Beau; item: Cn1c(C(F)(F)F)cc(=O)n(-c2cc(C(=O)NS(=O)(=O)NC3CCCC3)c(Cl)cc2F)c1=O
Output: 5.0

Each recorded value in this set is attributed to patent US6689773B2.
